molecular target: FGFR1-BCR Ba/F3 cells (Homo sapiens, UniProt P11362); assay: Ba/F3 cell viability assay (CellTiter-Glo 2.0), FGFR1-BCR Ba/F3; type: cell-based; conditions: read-out: Ba/F3 Cells FGFR1 (IC50 nM), 48 hours, Cell Titer Glo 2.0
Sequence (P11362 22-822 limits assumed, change not shown): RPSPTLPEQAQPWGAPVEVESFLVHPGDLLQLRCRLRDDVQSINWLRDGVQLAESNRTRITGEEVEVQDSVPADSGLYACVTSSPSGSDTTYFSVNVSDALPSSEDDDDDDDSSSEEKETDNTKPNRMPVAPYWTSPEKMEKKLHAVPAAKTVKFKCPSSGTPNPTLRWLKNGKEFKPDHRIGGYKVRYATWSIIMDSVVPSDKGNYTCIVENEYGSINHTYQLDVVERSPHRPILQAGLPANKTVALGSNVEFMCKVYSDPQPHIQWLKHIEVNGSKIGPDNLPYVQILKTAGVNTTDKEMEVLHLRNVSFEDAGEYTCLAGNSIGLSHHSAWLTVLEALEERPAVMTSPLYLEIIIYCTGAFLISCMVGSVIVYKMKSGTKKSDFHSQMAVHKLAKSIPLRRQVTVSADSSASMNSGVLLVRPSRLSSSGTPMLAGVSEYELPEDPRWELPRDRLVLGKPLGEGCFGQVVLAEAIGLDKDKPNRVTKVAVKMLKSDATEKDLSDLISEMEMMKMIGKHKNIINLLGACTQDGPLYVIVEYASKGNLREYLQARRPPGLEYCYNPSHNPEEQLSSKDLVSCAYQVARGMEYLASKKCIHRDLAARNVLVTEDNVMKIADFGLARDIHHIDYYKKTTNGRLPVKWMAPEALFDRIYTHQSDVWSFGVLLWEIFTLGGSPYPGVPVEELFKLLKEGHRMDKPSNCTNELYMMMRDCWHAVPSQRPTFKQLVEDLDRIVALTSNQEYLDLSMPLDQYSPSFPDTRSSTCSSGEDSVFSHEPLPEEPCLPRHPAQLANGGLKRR
readout name: IC50

{"columns": ["substance smiles", "value observed"],
 "data": [
  ["Cc1ncc(Cl)c([C@@H](C)Oc2ccc3[nH]nc(-c4cnn(C5CCOCC5)c4)c3c2)c1Cl", "> 300 nM"],
  ["C[C@@H](Oc1ccc2[nH]nc(-c3ccc(N4CC5(CCNCC5)OC4=O)nc3)c2c1)c1c(Cl)cncc1Cl", "100 to 300 nM"],
  ["COC(=O)N1CCCC2(C1)CN(c1ccc(-c3n[nH]c4ccc(O[C@H](C)c5c(Cl)cncc5Cl)cc34)cn1)C2", "100 to 300 nM"]
]}

Request: I am curious: what IC50 value has been reported for C[C@@H](Oc1ccc2[nH]nc(-c3cnc(N4CCC5(CCC(=O)N5)CC4)c(F)c3)c2c1)c1c(Cl)cncc1Cl ?
Result: 100 to 300 nM
